Tested on: corn
Type: in vivo
Conditions: post-emergence; reduction of corn damage by adding safener A3 to the herbicide; printed in the line of the herbicide alone, spans both lines
Mark Fulfilled for reported Damage reduced by of 80% or greater; mark Not fulfilled for anything smaller.

Worked examples, 5 molecules total:
[[record]]
molecule = "CS(=O)(=O)c1ccc(C(=O)C2C(=O)CCCC2=O)c([N+](=O)[O-])c1"
class = "Fulfilled"

[[record]]
molecule = "Cc1c(C(=O)c2cnn(C)c2O)ccc(S(C)(=O)=O)c1C1=NOCC1"
class = "Not fulfilled"

[[record]]
molecule = "COc1nn(C(=O)NS(=O)(=O)c2ccccc2OC(F)(F)F)c(=O)n1C"
class = "Not fulfilled"

[[record]]
molecule = "COc1cc(OC)nc(NC(=O)NS(=O)(=O)c2nc(C(F)(F)F)ccc2C(=O)O)n1"
class = "Not fulfilled"

[[record]]
molecule = "COc1cc(Cl)nc(NC(=O)NS(=O)(=O)c2ccccc2C(=O)O)n1"
class = "Fulfilled"


Q. Could you please find out whether "CCCN(CCC)C(=O)SCC" has Damage reduced by that meets 80% or exceeds it?
A. Not fulfilled

Q. Could you please find out whether "CS(=O)(=O)c1ccc(C(=O)C2C(=O)CCCC2=O)c(Cl)c1" has Damage reduced by that meets 80% or exceeds it?
A. Not fulfilled

Q. Could you please find out whether COCc1cnc(C2=NC(C)(C(C)C)C(=O)N2)c(C(=O)O)c1 (stereo not drawn) has Damage reduced by that meets 80% or exceeds it?
A. Not fulfilled

* * *

Test system: corn
Assay: Herbicidal pre-emergence action: damage to corn
Assay type: in vivo
Conditions: pre-emergence; reduction of corn damage by adding safener A3 to the herbicide; printed in the line of the herbicide alone, spans both lines
experimental.endpoint: Damage reduced by (%)
Return type: number; implicit unit %.

[[record]]
smiles_notation = "COc1cc(OC)nc(NC(=O)NS(=O)(=O)c2cc(CNS(C)(=O)=O)ccc2C(=O)O)n1"
study_system = "corn"
observed_result = 56


Q. Which Damage reduced by reading was recorded for the compound "CSc1nnc(C(C)(C)C)c(=O)n1N" ?
A. 50

Q. Which Damage reduced by reading was recorded for the compound "COc1nc(C)nc(N(C)C(=O)NS(=O)(=O)c2ccccc2C(=O)O)n1" ?
A. 50

Q. Which Damage reduced by reading was recorded for the compound "COc1nc(C)nc(NC(=O)NS(=O)(=O)c2ccsc2C(=O)O)n1" ?
A. 100

* * *

Tested on: corn
Type: in vivo
Conditions: in vivo
The entries below are paired with their reported Damage reduced by.
Return type: number; implicit unit %.

// worked examples, Damage reduced by included
[[record]]
molecule = "COc1cc(OC)nc(NC(=O)NS(=O)(=O)N(C)S(C)(=O)=O)n1 [Component B1.25, amidosulfuron]"
experimental_endpoint = "Damage reduced by"
endpoint_unit = "%"
observed_result = 80

[[record]]
molecule = "CCc1cnc(C2=NC(C)(C(C)C)C(=O)N2)c(C(=O)O)c1 (stereo not shown) [Component B1.21, imazethapyr]"
experimental_endpoint = "Damage reduced by"
endpoint_unit = "%"
observed_result = 71

[[record]]
molecule = "Cc1ccn2nc(S(=O)(=O)Nc3c(F)cccc3F)nc2n1 [Component B1.16, flumetsulam]"
experimental_endpoint = "Damage reduced by"
endpoint_unit = "%"
observed_result = 43

[[record]]
molecule = "COc1cc(OC)nc(NC(=O)NS(=O)(=O)c2c(C(=O)O)c(Cl)nn2C)n1 [Component B1.17, halosulfuron]"
experimental_endpoint = "Damage reduced by"
endpoint_unit = "%"
observed_result = 100

[[record]]
molecule = "COc1cc(OC)nc(NC(=O)NS(=O)(=O)c2cc(NC=O)ccc2C(=O)N(C)C)n1 [Component B1.2, foramsulfuron]"
experimental_endpoint = "Damage reduced by"
endpoint_unit = "%"
observed_result = 100


Q. Which Damage reduced by reading was recorded for the molecule Cc1cnc(C2=NC(=O)C(C)(C(C)C)N2)c(C(=O)O)c1 (stereo not shown) [Component B1.19, imazapic] ?
A. 33

Q. Which Damage reduced by reading was recorded for the molecule COc1nc(C)nc(NC(=O)NS(=O)(=O)c2ccccc2Cl)n1 [Component B1.26, chlorsulfuron] ?
A. 86
